Catalogue of growth inhibition values
experiment: NCI Yeast Anticancer Drug Screen. Data for the mlh1 rad18 strain (AID 175); conditions: S. cerevisiae mlh1 rad18 strain growth inhibition; at 5.0 µM (retest, dose inferred, filed as 0.5); stronger effect = higher value
The panel holds about 79,000 compounds, 15% with a hit somewhere; the sample as a whole holds those more often.
Give just the numeric value; % need not be written.

Look over these answered cases.
• CCCC(=O)Oc1ccc(-c2ccccc2)cc1Br = -1
• COc1cc([C@@H]2c3cc4c(cc3[C@@H](OC3OC5CO[C@@H](c6cccs6)OC5C(O)C3O)[C@H]3COC(=O)[C@H]23)OCO4)cc(OC)c1O (stereo not given in full) = 5
• CCCC[N-]CC(O)C[NH-].O=C(O)CC(=O)O.[Pt+2] (stereo not given) = 0
• O=C(O)C1C(C(=O)Nc2ccc3c(c2)Cc2ccccc2-3)C2(Cl)C(Cl)=C(Cl)C1(Cl)C2(Cl)Cl (stereo not given) = 46
• [Cl-].[La+3].[O-]/N=C(\c1ccccc1)c1ccccn1.[O-]/N=C(\c1ccccc1)c1ccccn1.[O-]/N=C(\c1ccccc1)c1ccccn1 = 43

Exercise: Fill in: growth inhibition of "Oc1cccc(Oc2cccc(Oc3ccccc3)c2)c1" is ___
Solution: 2

Exercise: Fill in: growth inhibition of "O=C/C=C/c1cc([N+](=O)[O-])ccc1Cl" is ___
Solution: -137

Exercise: Fill in: growth inhibition of "Cc1coc(C)c1C(=S)Nc1ccc(Cl)c(C(=O)OC(C)C)c1" is ___
Solution: -9

Exercise: Fill in: growth inhibition of O=C(c1ccc(Oc2ccccc2)cc1)C(C(c1ccccc1)N1CCOCC1)N1CCOCC1 (stereo not given) is ___
Solution: 20

Exercise: Fill in: growth inhibition of "CNc1cc(SC)nc(N)n1" is ___
Solution: 0

Exercise: Fill in: growth inhibition of N#CC(C(=O)CCc1nc2ccccc2[nH]1)c1c(Cl)cccc1Cl (stereo not given) is ___
Solution: -1

Exercise: Fill in: growth inhibition of N#CC=Cc1ccc([N+](=O)[O-])s1 (mixture of isomers) is ___
Solution: 50

Exercise: Fill in: growth inhibition of O=C(COc1ccc(Br)cc1Br)N1N=C(c2ccc([N+](=O)[O-])o2)CC1(O)c1ccccc1 (stereo not given) is ___
Solution: 22

Exercise: Fill in: growth inhibition of CCN(CC)CCC(=O)OC1C(C)=CC(C)C(=O)CC(C(C)CC2CCC(O)C(OC)C2)OC(=O)C2CCCCN2C(=O)C(=O)[C@@]2(O)OC(CCC2C)CC(OC)\C(C)=C/C=C/C=C/C(C)CC(C)C(=O)C1OC (stereo not given in full) is ___
Solution: 97

Exercise: Fill in: growth inhibition of "O=c1[nH]c2c([N+](=O)[O-])cc(Cl)cc2nc1/C=C(\O)c1ccc2ccccc2c1" is ___
Solution: 25

Exercise: Fill in: growth inhibition of "c1cc2cc(Cc3ccc4[nH]ccc4c3)ccc2[nH]1" is ___
Solution: 32

Exercise: Fill in: growth inhibition of CCc1cccc(C)c1NC(=O)C(=O)C(C#N)c1ccc(C)cc1 (stereo not given) is ___
Solution: 13

* * *

Catalogue of growth inhibition values
experiment: NCI Yeast Anticancer Drug Screen. Data for the bub3 strain (AID 167); conditions: S. cerevisiae bub3 mutant strain, at 50.0 µM (retest, dose inferred, filed as 5.0), stronger effect = higher value
This is part of a sample that, as a whole, favours compounds with a hit. Of some 79,000 tested, about 15% had one in any assay.
Give just the numeric value; % need not be written.

• CC(=O)Oc1c(Br)cc(Br)cc1Br = 6
• Cc1c(N)nc(C2CC(=O)N2CC(N)C(N)=O)nc1C(=O)NC(C(=O)NC(C)C(O)C(C)C(=O)NC(C(=O)NCCc1nc(-c2nc(C(=O)NCCNCC(C)O)cs2)cs1)C(C)O)C(OC1OC(CO)C(O)C(O)C1OC1OC(CO)C(O)C(OC(N)=O)C1O)c1cnc[nH]1 (stereo unspecified) = 96
• CC(=O)C1CCC2C3CC(F)C4(O)CC(O)CCC4(C)C3CCC12C (stereo unspecified) = 33

Exercise: Fill in: growth inhibition of "CNC(=S)/N=c1/sc([N+](=O)[O-])c(C)n1C" is ___
Solution: 5

Exercise: Fill in: growth inhibition of "CSc1nc(C)c(C(=O)CCN2CCOCC2)s1" is ___
Solution: 92

Exercise: Fill in: growth inhibition of "O=C1CSC2(CCN(CCCN3c4ccccc4Sc4ccc(Cl)cc43)CC2)N1" is ___
Solution: 99

Exercise: Fill in: growth inhibition of "COc1ccc(C2=C(Cl)C(=O)N(c3ccc(Cl)cc3)C(=O)C2(Cl)Cl)cc1" is ___
Solution: 95

* * *

assay: NCI Yeast Anticancer Drug Screen. Data for the bub3 strain (AID 167); conditions: S. cerevisiae bub3 mutant strain, at 50.0 µM (retest, dose inferred, filed as 5.0), stronger effect = higher value
This is part of a sample that, as a whole, favours compounds with a hit. Of some 79,000 tested, about 15% had one in any assay.
Rule: growth inhibition under 50% gives criterion not met, otherwise criterion met.

• O=C(O)c1ccccc1N=N/C(=N\Nc1cc(S(=O)(=O)O)ccc1O)c1ccccc1 = criterion met
• COC(=O)C1(Cc2ccc3c(c2)CCC3)Cc2ccccc2C1O (stereo not drawn) = criterion met
• CSCCC(NC(=O)C(CCSC)NS(=O)(=O)Cc1ccccc1)C(=O)O (stereo not drawn) = criterion not met
• CC(C)OP(=O)(CCCCCCCCC/C=C/c1ccc2c(c1)OCCOCCOCCOCCO2)OC(C)C = criterion met
• CCCCNc1ccc(-c2c(N)nc(N)nc2CC)cc1[N+](=O)[O-] = criterion not met

Exercise: Answer whether growth inhibition of "CC(=O)NCCN(C)C" is greater than or equal to 50%.
Solution: criterion not met

Exercise: Answer whether growth inhibition of "c1ccc2c(c1)nc1cc(NC3CCCCC3)c(=NC3CCCCC3)cc-1n2C1CCCCC1" is greater than or equal to 50%.
Solution: criterion not met

Exercise: Answer whether growth inhibition of COC(=O)C(=O)C(C(=O)C(=O)Nc1ccc(C)cc1C)c1nc2ccccc2[nH]c1=O (stereo not drawn) is greater than or equal to 50%.
Solution: criterion not met

Exercise: Answer whether growth inhibition of CN(C)CC(O)c1cc(-c2ccc(Cl)c(Cl)c2)nc2c(Cl)cc(Cl)cc12 (stereo not drawn) is greater than or equal to 50%.
Solution: criterion met

Exercise: Answer whether growth inhibition of O=C(c1ccccc1)C(Br)C(Br)c1ccc(Cl)c(Cl)c1 (stereo not drawn) is greater than or equal to 50%.
Solution: criterion met

Exercise: Answer whether growth inhibition of "Nc1nc(=O)[nH]c([O-])c1N=O.Nc1nc(=O)[nH]c([O-])c1N=O.[Ag+].[Ag+]" is greater than or equal to 50%.
Solution: criterion not met

Exercise: Answer whether growth inhibition of "COc1c(I)cc(I)c(O)c1I" is greater than or equal to 50%.
Solution: criterion not met

Exercise: Answer whether growth inhibition of "COc1ccc(OC)c(/C=C/c2ccnc3ccccc23)c1" is greater than or equal to 50%.
Solution: criterion met

Exercise: Answer whether growth inhibition of CCCCCCCCCCC(C(=O)OCCCC)P(=O)(OCCCC)OCCCC (stereo not drawn) is greater than or equal to 50%.
Solution: criterion met

Exercise: Answer whether growth inhibition of CC1CCCN(c2cc(N(C)C)c([N+](=O)[O-])cc2F)C1 (stereo not drawn) is greater than or equal to 50%.
Solution: criterion met

Exercise: Answer whether growth inhibition of "CN(C)Cc1ccccc1C(=O)C(=O)c1ccccc1CN(C)C" is greater than or equal to 50%.
Solution: criterion not met

Exercise: Answer whether growth inhibition of "CCCCCCCCCCCCSC1=C(N)C(=O)c2ccccc2C1=O" is greater than or equal to 50%.
Solution: criterion not met

Exercise: Answer whether growth inhibition of "c1cc2cc(Cc3ccc4[nH]ccc4c3)ccc2[nH]1" is greater than or equal to 50%.
Solution: criterion not met

Exercise: Answer whether growth inhibition of "COc1ccc(C(=O)Cn2c(C(C)=O)nc3ccccc32)cc1" is greater than or equal to 50%.
Solution: criterion not met

* * *

assay: NCI Yeast Anticancer Drug Screen. Data for the rad50 strain (AID 155);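 also: 0% = growth of vehicle-only cultures of the same strain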; conditions: S. cerevisiae rad50 strain growth inhibition; at 50.0 µM (retest, dose inferred, filed as 5.0)
This is part of a sample that, as a whole, favours compounds with a hit. Of some 79,000 tested, about 15% had one in any assay. Activity calls are given as the source filed them. Cut-off read from the data, not from the text of the source: active = growth inhibition above about 70%; inactive = the rest.
Form entry, call: pick from active, inactive

Reference set (5 entries):
• CNC(=O)N(C)/N=C/c1ccc([N+](=O)[O-])o1 = inactive
• OCCSC(=S)Nc1ccc(Cl)c(Cl)c1 = active
• CCCCCCCCCCCCCCNCCC(=O)O = active
• Nc1nc(-c2ccccn2)cc2c(Cl)cccc12 = active
• Cc1cccc(-c2nnc(-c3cccc(C)c3)o2)c1 = inactive

Please find the next compound below.
Exercise: Please let me know the test result on file for "O=C(c1ccccc1)c1cn(/N=C\c2ccccc2)c(=O)nc1-c1ccccc1" .
Solution: inactive
